These measurements were taken from patent US11046675B2.

I'd appreciate it if you could supply IC50 values for the items below.
# assay_target: PD-1/PD-L1 (Homo sapiens (Human))
# Sequence (Q9NZQ7 other isoform, or with tags, fused parts or gaps): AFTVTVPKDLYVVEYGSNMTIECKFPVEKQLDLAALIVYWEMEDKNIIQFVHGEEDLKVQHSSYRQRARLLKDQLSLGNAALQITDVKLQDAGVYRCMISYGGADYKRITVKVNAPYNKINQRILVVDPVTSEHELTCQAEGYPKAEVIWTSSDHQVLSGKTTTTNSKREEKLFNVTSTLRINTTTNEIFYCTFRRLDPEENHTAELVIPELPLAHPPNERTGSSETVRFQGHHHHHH
# experiment_description: PD-1/PD-L1 Homogenous Time-Resolved Fluorescence (HTRF) binding assay
# condition_details: PD-L1-His 10 nM, PD-1-Ig 20 nM; reported as range class; read-out: IC50 (μM) (Range or value)

Supply measured IC50 of Cc1c(COc2cc(O)c3c(c2)CCN(CC(=O)O)C3)cccc1-c1ccc2c(c1)OCCO2 [Example 1003] in your reply.
0.051 to 1.5 µM

Write down IC50 measured for item Cc1c(COc2cc3c(c(OCc4cncc(C#N)c4)c2)CN(CC(=O)O)CC3)cccc1-c1ccc2c(c1)OCCO2 [Example 1001]
0.002 to 0.015 µM

Specify measured IC50 for Cc1c(COc2ccc3c(c2)CN[C@@H](C(=O)O)C3)cccc1-c1ccc2c(c1)OCCO2 [Example 1004] .
1.51 to 10 µM

Give IC50 for COC(=O)c1cncc(COc2cc(OCc3cccc(-c4cccc(OCCCN5CC[C@@H](O)C5)c4C)c3C)c(Cl)c3c2CN(CC(=O)O)CC3)c1 [Example 1007]
0.016 to 0.05 µM

Give the reported IC50 for this compound. Cc1c(COc2cc(OCc3cncc(C#N)c3)cc3c2CN(CC(=O)O)CC3)cccc1-c1ccc2c(c1)OCCO2 [Example 1002]
0.051 to 1.5 µM
